Source of measurements: PubChem BioAssay AID591

Test: qHTS Assay for Spectroscopic Profiling in A488 Spectral Region
Conditions: compound autofluorescence; dye equivalency, Compound Type: qHTS ECL - MLSMR unless noted
About 60 (0.1%) of roughly 59,000 compounds were called active. This excerpt belongs to a sample that is enriched for actives.

Smi | outcome
Cc1noc(C)c1C(=O)OCC(=O)/C=C1\N(C)c2ccccc2C1(C)C | inactive
CC(=O)c1c(C)[nH]c(C(=O)NCCCN2CCCC2)c1C | inactive
O=C(CSc1nnc(-c2ccncc2)n1C1CCCCC1)Nc1ccccc1 | inactive

----------
Assay: qHTS Assay for Spectroscopic Profiling in A488 Spectral Region
Details: compound autofluorescence; dye equivalency, Compound Type: qHTS ECL - MLSMR unless noted
Out of some 59,000 compounds screened, about 60 (0.1%) were called active. Many of the other results were omitted from the sample, so actives are more common in it than they were.

Smi | outcome
CCOC(=O)Nc1ccccc1N1C(=O)c2ccccc2C1=O | inactive
O=C(Cn1c(-c2ccc(Cl)cc2)noc1=O)N1CCN(c2ccccc2F)CC1 | inactive
